Recorded values, source ChEMBL document CHEMBL3414508.

# PROTOCOL TEXT: Cytotoxicity against MDCK cells after 72 hrs by MTS assay
# Format: cell-based, Canis lupus familiaris
# TEST CONTEXT: dog
Could you please report measured CC50 at 72 h for the items listed next?

stdin: Fill blank: measured CC50 at 72 h of the compound CC(=O)N[C@H]1[C@H](O[C@@H]2c3ccc(c(Cl)c3)Oc3cc4cc(c3O)Oc3ccc(cc3Cl)C[C@H]3NC(=O)[C@H](N)c5ccc(O)c(c5)Oc5cc(O)cc(c5)[C@H](NC3=O)C(=O)N[C@H]4C(=O)N[C@H]3C(=O)N[C@@H]2C(=O)N[C@H](C(=O)O)c2cc(O)cc(O)c2-c2cc3ccc2O)O[C@H](CO)[C@@H](O)[C@@H]1O is ____.
stdout: > 100 µM

stdin: Same thing, different compound: CC(=O)N[C@H]1[C@H](O[C@@H]2c3ccc(c(Cl)c3)Oc3cc4cc(c3O)Oc3ccc(cc3Cl)C[C@H]3NC(=O)[C@H](Nc5c(NCc6ccc(-c7ccccc7)cc6)c(=O)c5=O)c5ccc(O)c(c5)Oc5cc(O)cc(c5)[C@H](NC3=O)C(=O)N[C@H]4C(=O)N[C@H]3C(=O)N[C@@H]2C(=O)N[C@H](C(=O)O)c2cc(O)cc(O)c2-c2cc3ccc2O)O[C@H](CO)[C@@H](O)[C@@H]1O
stdout: 6.5 µM

stdin: How about this compound: COC(=O)[C@H]1NC(=O)[C@H]2NC(=O)[C@H](NC(=O)[C@@H]3NC(=O)[C@H]4NC(=O)[C@@H](Cc5ccc(cc5)Oc5cc3cc(c5O)Oc3ccc(cc3)[C@H]2O)NC(=O)[C@H](Nc2c(NCc3ccc(-c5ccccc5)cc3)c(=O)c2=O)c2ccc(O)c(c2)Oc2cc(O)cc4c2)c2ccc(O)c(c2)-c2c(O)cc(O)cc21
stdout: 20 µM
